# assay: in vivo
# reported-conditions: male, NODSCID 1L2RγKO, mouse, iv, total radioactivity, Stomach uptake
Here the recorded tissue uptake at 1 h is given for each entry.
The reply should contain only the number, in %ID/g.

>  <molecule>
O=C(O)CCC[C@H](NC(=O)N[C@@H](CCCCNC(=O)[C@H](Cc1c2ccccc2cc2ccccc12)NC(=O)Cc1ccc(CNC(=O)CN2CCN(CC(=O)O)CCN(CC(=O)O)CCN(CC(=O)O)CC2)cc1)C(=O)O)C(=O)O [68Ga-HTK04036, metal not drawn]

>  <uom>
%ID/g

>  <tissue uptake at 1 h>
0.12

$$$$
>  <molecule>
O=C(O)CN1CCN(CC(=O)O)CCN(CC(=O)NC[C@H]2CC[C@H](C(=O)N[C@@H](Cc3c4ccccc4cc4ccccc34)C(=O)NCCCC[C@H](NC(=O)N[C@@H](C[C@@H](F)C(=O)O)C(=O)O)C(=O)O)CC2)CCN(CC(=O)O)CC1 [68Ga-HTK04033, metal not drawn]

>  <uom>
%ID/g

>  <tissue uptake at 1 h>
0.07

$$$$
>  <molecule>
O=C(O)CSC[C@H](NC(=O)N[C@@H](CCCCNC(=O)[C@H](Cc1c2ccccc2cc2ccccc12)NC(=O)[C@H]1CC[C@H](CNC(=O)CN2CCN(CC(=O)O)CCN(CC(=O)O)CCN(CC(=O)O)CC2)CC1)C(=O)O)C(=O)O [68Ga-HTK03177, metal not drawn]

>  <uom>
%ID/g

>  <tissue uptake at 1 h>
0.15

$$$$

What measured tissue uptake at 1 h goes with O=C(O)COC[C@H](NC(=O)N[C@@H](CCCCNC(=O)[C@H](Cc1c2ccccc2cc2ccccc12)NC(=O)[C@H]1CC[C@H](CNC(=O)CN2CCN(CC(=O)O)CCN(CC(=O)O)CCN(CC(=O)O)CC2)CC1)C(=O)O)C(=O)O [68Ga-HTK03187, metal not drawn] ?
0.08

Values compiled from patent US11504441B2.
